B1: glmS ribozyme (parent)
chain: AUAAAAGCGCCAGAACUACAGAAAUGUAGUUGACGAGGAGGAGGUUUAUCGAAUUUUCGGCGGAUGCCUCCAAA

- Variants of: B1
- method_summary: self-cleavage kobs at 40 uM GlcN6P; higher = faster cleavage; RNA array
- protocol_conditions: with glucosamine-6-phosphate
This sample holds only a part of the variants without activity.
metric: self-cleavage kobs at 40 uM GlcN6P

INSERT INTO assay_data (entry_sequence, metric, observed_result) VALUES
  ('AUAAAAGCGCCAGAACUACAGAAAUGUAGUUGACGAGAAGGAGGUUUAUCGAAUUUUUUGCGGAUGCCUCCAAA', 'self-cleavage kobs at 40 uM GlcN6P', '< 1e-05 s⁻¹'),
  ('AUAAAAGCGCCAGAACUACAGAAAUGUAGUUGACGAGGAGGAGGUUUAUGUAAUUUUCGGCGGAUGCCUCCAAA', 'self-cleavage kobs at 40 uM GlcN6P', '< 1e-05 s⁻¹'),
  ('AUAAAAGCGCCAGACGUACAGAAAUGUAGUUGACGAGGAGAAGGUUUAUCGAAUUUUCGGCGGAUGCCUCCAAA', 'self-cleavage kobs at 40 uM GlcN6P', '< 1e-05 s⁻¹'),
  ('AUAAAAGCGCUAGAACUACAGAAAUGUAGUUGACGAGGAGGAGGUUUAUAGAAUUUUCGGCGGAUGCCUGCAAA', 'self-cleavage kobs at 40 uM GlcN6P', '9.07e-05 s⁻¹'),
  ('AUAAAAGCGCCAGAACUACAGAAAUGUAGUUGACGAGGAGGAGGUAUAUCGAAUUUUCGGCGGAUCCCUCCAAA', 'self-cleavage kobs at 40 uM GlcN6P', '5.47e-05 s⁻¹');

Ask: Entry AUAAAAGCGCCAGAACUACAGAAAUGUAGUUGACGAGGAGGAGAUUUAUCGAAUUUUCGGCGGAUGCCGCCAAA : reported self-cleavage kobs at 40 uM GlcN6P = ?
Result: < 1e-05 s⁻¹

Ask: Entry AUAAAAGCGCCAGGACUACAGAAAUGUAGUUGACGAGGAGGAGGUUUAUCGAAUUUUCGGCGGAUCCCUCCAAA : reported self-cleavage kobs at 40 uM GlcN6P = ?
Result: 4.79e-05 s⁻¹

Ask: Entry AUAAAAGCGUCAGAAUUACAGAAAUGUAGUUGACGAGAAGGAGGUUUGUCGAAUUUUCGGCGGAUGCCUCCAAA : reported self-cleavage kobs at 40 uM GlcN6P = ?
Result: < 1e-05 s⁻¹

Ask: Entry AUAAAAGCGACAGAACUACAGAAAUGUAGUUGACGAGGAGGAGGUGUAUCGAAUUUUCGGCGGAUGCCUCCAAA : reported self-cleavage kobs at 40 uM GlcN6P = ?
Result: < 1e-05 s⁻¹

Ask: Entry AUAAAAGCGCCAGAACUACAGAAAUGUAGUUGACGAGGAGGCGGUUUAUCAAAUUUUCGGUGGAUGCCUCCAAA : reported self-cleavage kobs at 40 uM GlcN6P = ?
Result: < 1e-05 s⁻¹

Ask: Entry AUAAAGUCGCCAGAACUACAGAAAUGUAGUUGACGAGGAGGAGGUUUAUCGAAUUUUCGGCGGAUGCCUCCAAA : reported self-cleavage kobs at 40 uM GlcN6P = ?
Result: < 1e-05 s⁻¹

Ask: Entry AUAAAAGCGCCAGAACUACAGAAAUGUAGUUUACGCGGAGGAGGUUUAUCGAUAUUUCGGCGUAUGCCUCCAAA : reported self-cleavage kobs at 40 uM GlcN6P = ?
Result: < 1e-05 s⁻¹

Ask: Entry AUAAAAGCGCCAGAACUACAGAAAUGUAGUUAACGAGGAGGAGGUUUAUCGAAUUUUCGGCGGAUGGCUUCAAA : reported self-cleavage kobs at 40 uM GlcN6P = ?
Result: < 1e-05 s⁻¹

Ask: Entry AUAAAAGCGCCAGAACUACAGAAAUGUAGUUAACGACGAGGUGGUUUAUCGAAUUUUCGGCGGAUGCCUCCAAA : reported self-cleavage kobs at 40 uM GlcN6P = ?
Result: < 1e-05 s⁻¹

Ask: Entry AUAAAAGCGCCAUAACUACAGAAAUGUAGUUGACUAGGAGGAGGUUUAUCGAAUUUUCGGCGGAUGCCUCCAAA : reported self-cleavage kobs at 40 uM GlcN6P = ?
Result: < 1e-05 s⁻¹
